System: Salmonella typhimurium
Assay: Antibacterial activity against Salmonella enterica subsp. enterica serovar Typhimurium by agar well diffusion method
Format: functional

molecule | MIC, µg/mL
CCOC(=O)C1=C(C)NC(=S)NC1c1ccc(NC(=S)Nc2ccc(C(C)C)cc2)cc1 (stereo not given) | 90
CCOC(=O)C1=C(C)NC(=S)NC1c1ccc(NC(=S)Nc2c(C)cccc2F)cc1 (stereo not given) | 90
CCOC(=O)C1=C(C)NC(=S)NC1c1ccc(NC(=S)Nc2ccc(C(F)(F)F)cc2)cc1 (stereo not given) | 30
CCOC(=O)C1=C(C)NC(=S)NC1c1ccc(NC(=S)Nc2cccc(C(F)(F)F)c2)cc1 (stereo not given) | 15
CCOC(=O)C1=C(C)NC(=S)NC1c1ccc(NC(=S)Nc2cc(F)cc(F)c2)cc1 (stereo not given) | 90
CCOC(=O)C1=C(C)NC(=S)NC1c1ccc(NC(=S)Nc2c(F)cccc2C(F)(F)F)cc1 (stereo not given) | 45
CCOC(=O)C1=C(C)NC(=S)NC1c1ccc(NC(=S)Nc2ccccc2F)cc1 (stereo not given) | 15
CCOC(=O)C1=C(C)NC(=S)NC1c1ccc(NC(=S)Nc2ccc(C(F)(F)F)cc2Cl)cc1 (stereo not given) | 55
CCOC(=O)C1=C(C)NC(=S)NC1c1ccc(NC(=S)Nc2ccc(OC)cc2)cc1 (stereo not given) | 25
CCOC(=O)C1=C(C)NC(=S)NC1c1ccc(NC(=S)Nc2ccccc2OC(F)(F)F)cc1 (stereo not given) | 10
CCOC(=O)C1=C(C)NC(=S)NC1c1ccc(NC(=S)Nc2ccccc2Cl)cc1 (stereo not given) | 20
CCOC(=O)C1=C(C)NC(=S)NC1c1ccc(NC(=S)Nc2c(Cl)cccc2C(F)(F)F)cc1 (stereo not given) | 90
CCOC(=O)C1=C(C)NC(=S)NC1c1ccc(NC(=S)Nc2cc(C(F)(F)F)ccc2Cl)cc1 (stereo not given) | 90
O=C(O)c1cn(C2CC2)c2cc(N3CCNCC3)c(F)cc2c1=O | 25
CCOC(=O)C1=C(C)NC(=S)NC1c1ccc(NC(=S)Nc2c(C)cccc2Cl)cc1 (stereo not given) | 65
CCOC(=O)C1=C(C)NC(=S)NC1c1ccc(NC(=S)Nc2c(F)cccc2Cl)cc1 (stereo not given) | 60
CCOC(=O)C1=C(C)NC(=S)NC1c1ccc(NC(=O)Nc2ccccc2Oc2ccccc2)cc1 (stereo not given) | 65
CCOC(=O)C1=C(C)NC(=S)NC1c1ccc(NC(=S)Nc2ccccc2C(F)(F)F)cc1 (stereo not given) | 40
CCOC(=O)C1=C(C)NC(=S)NC1c1ccc([N+](=O)[O-])cc1 (stereo not given) | 30
CCOC(=O)C1=C(C)NC(=S)NC1c1ccc(N)cc1 (stereo not given) | 45

Hello, the source for this data is ChEMBL document CHEMBL3045793, in case you need it.
